assay: Cmax in CD1 mouse at […], po by LC-MS/MS analysis; assay type: ADME, organism-based; design: dose 0.83 mg/kg, route oral; conditions: in vivo

{"columns": ["structure", "units", "Cmax"],
 "data": [
  ["COc1ncc(-c2cccc(N3CCN(c4cnc(N)nc4N)CC3)c2)cn1", "µg/mL", 0.178]
]}

====

assay: Drug uptake in CD1 mouse blood at 10 mg/kg, po after 0.5 hrs by LC-MS/MS analysis

{"columns": ["structure", "units", "concentration at 0.5 h"],
 "data": [
  ["COc1ncc(-c2cccc(N3CCN(c4cnc(N)nc4N)CC3)c2)cn1.O=C(O)C(F)(F)F", "ng/mL", 1610]
]}

====

system: human DHFR versus Toxoplasma gondii DHFR-TS; experiment: in vitro
Description: Selectivity ratio of IC50 for human DHFR to IC50 for Toxoplasma gondii DHFR-TS

{"columns": ["structure", "selectivity ratio"],
 "data": [
  ["Cc1nc(N)nc(N)c1N1CCN(c2cccc(-c3ccccc3)c2)CC1", 26],
  ["Nc1ncc(N2CCN(c3ccccc3-c3ccccc3)CC2)c(N)n1", 58],
  ["Nc1ncc(N2CCN(c3cccc(-c4cccnc4)c3)CC2)c(N)n1", 112],
  ["CCc1nc(N)nc(N)c1N1CCN(c2cccc(-c3ccccc3)c2)CC1", 51],
  ["Nc1ncc(N2CCN(c3cccc(OC(F)(F)F)c3)CC2)c(N)n1", 63],
  ["Nc1ncc(N2CCN(c3cccc(Cl)c3)CC2)c(N)n1", 39],
  ["Nc1ncc(N2CCN(c3ccc(-c4ccccc4)cc3)CC2)c(N)n1", 11]
]}

====

assay: Kinetic solubility of the compound at pH 7 after 24 hrs by shake flask method; format: physicochemical; conditions: buffer, read-out: Kinetic_solubility
Rule: solubility kinetic at 24 h under 10 µM gives Condition not met, otherwise Condition met.

{"columns": ["structure", "cat"],
 "data": [
  ["Nc1ncc(N2CCN(c3cccc(-c4ccccc4)c3)CC2)c(N)n1", "Condition not met"],
  ["Nc1ncc(N2CCN(c3cccc(-c4ncccn4)c3)CC2)c(N)n1", "Condition met"],
  ["Nc1ncc(N2CCN(c3cccc(-c4cncnc4)c3)CC2)c(N)n1", "Condition met"],
  ["Nc1ncc(N2CCN(c3cccc(-c4cnc(C5CC5)nc4)c3)CC2)c(N)n1", "Condition met"],
  ["Nc1ncc(N2CCN(c3cccc(-c4ccnnc4)c3)CC2)c(N)n1", "Condition not met"],
  ["Cc1ncc(-c2cccc(N3CCN(c4cnc(N)nc4N)CC3)c2)cn1", "Condition met"],
  ["CCc1nc(N)nc(N)c1-c1ccc(Cl)cc1", "Condition met"],
  ["COc1ncc(-c2cccc(N3CCN(c4cnc(N)nc4N)CC3)c2)cn1", "Condition met"],
  ["Nc1ncc(N2CCN(c3cccc(-c4ccccn4)c3)CC2)c(N)n1", "Condition met"],
  ["Nc1ncc(N2CCN(c3cccc(-c4cnc(C(F)(F)F)nc4)c3)CC2)c(N)n1", "Condition met"],
  ["Nc1ncc(N2CCN(c3cccc(-c4ccncc4)c3)CC2)c(N)n1", "Condition not met"],
  ["Nc1ncc(N2CCN(c3cccc(-c4cnccn4)c3)CC2)c(N)n1", "Condition not met"]
]}

====

Target: Dihydrofolate reductase (Homo sapiens, UniProt P00374)
Sequence (P00374 whole entry): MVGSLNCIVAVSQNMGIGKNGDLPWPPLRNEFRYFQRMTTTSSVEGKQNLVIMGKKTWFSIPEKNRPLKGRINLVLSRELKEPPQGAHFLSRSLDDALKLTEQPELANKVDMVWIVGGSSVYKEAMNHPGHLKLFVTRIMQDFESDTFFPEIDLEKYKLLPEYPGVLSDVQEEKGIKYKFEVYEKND
pIC50: −log10 of the molar value.
Rule: pIC50 under 6 gives Not satisfied, otherwise Satisfied.

{"columns": ["compound", "tgt", "cat"],
 "data": [
  ["Nc1ncc(N2CCN(c3cccc(Cl)c3)CC2)c(N)n1", "Dihydrofolate reductase (Homo sapiens, UniProt P00374)", "Not satisfied"],
  ["COc1ncc(-c2cccc(N3CCN(c4cnc(N)nc4N)CC3)c2)cn1 [FANOTAPRIM]", "Dihydrofolate reductase (Homo sapiens, UniProt P00374)", "Satisfied"],
  ["Nc1ncc(N2CCN(c3cccc(-c4ccncc4)c3)CC2)c(N)n1", "Dihydrofolate reductase (Homo sapiens, UniProt P00374)", "Satisfied"]
]}

====

target: Bifunctional dihydrofolate reductase-thymidylate synthase (Toxoplasma gondii); assay: biochemical
Description: Inhibition of Toxoplasma gondii DHFR-TS expressed in Escherichia coli BL21 competent cells using DHF as substrate preincubated for 15 mins followed by substrate and NADPH addition and measured after 60 mins by resazurin dye based diaphorase-coupled assay

{"columns": ["structure", "tgt", "IC50 [nM]"],
 "data": [
  ["Cc1ccc(N2CCN(c3cnc(N)nc3N)CC2)cc1", "Bifunctional dihydrofolate reductase-thymidylate synthase (Toxoplasma gondii)", 181],
  ["Nc1ncc(N2CCN(c3cccc(-c4cccnc4)c3)CC2)c(N)n1", "Bifunctional dihydrofolate reductase-thymidylate synthase (Toxoplasma gondii)", 2.68],
  ["CCc1nc(N)nc(N)c1N1CCN(c2cccc(-c3ccccc3)c2)CC1", "Bifunctional dihydrofolate reductase-thymidylate synthase (Toxoplasma gondii)", 3.91],
  ["COc1ncc(-c2cccc(N3CCN(c4cnc(N)nc4N)CC3)c2)cn1", "Bifunctional dihydrofolate reductase-thymidylate synthase (Toxoplasma gondii)", 1.57],
  ["Nc1ncc(N2CCN(c3cccc(-c4cnc(C(F)(F)F)nc4)c3)CC2)c(N)n1", "Bifunctional dihydrofolate reductase-thymidylate synthase (Toxoplasma gondii)", 32.7],
  ["Nc1ncc(N2CCN(c3cccc(-c4cnc(C5CC5)nc4)c3)CC2)c(N)n1", "Bifunctional dihydrofolate reductase-thymidylate synthase (Toxoplasma gondii)", 9.92]
]}

====

assay: Volume of distribution in CD1 mouse at 1 mg/kg, iv by LC-MS/MS analysis; assay type: ADME, organism-based; details: in vivo
value_type: Vd (L/kg)

{"columns": ["structure", "numeric_result"],
 "data": [
  ["COc1ncc(-c2cccc(N3CCN(c4cnc(N)nc4N)CC3)c2)cn1", 1.14]
]}

====

Molecular target: Bifunctional dihydrofolate reductase-thymidylate synthase (Toxoplasma gondii)
Sequence (Q07422 whole entry): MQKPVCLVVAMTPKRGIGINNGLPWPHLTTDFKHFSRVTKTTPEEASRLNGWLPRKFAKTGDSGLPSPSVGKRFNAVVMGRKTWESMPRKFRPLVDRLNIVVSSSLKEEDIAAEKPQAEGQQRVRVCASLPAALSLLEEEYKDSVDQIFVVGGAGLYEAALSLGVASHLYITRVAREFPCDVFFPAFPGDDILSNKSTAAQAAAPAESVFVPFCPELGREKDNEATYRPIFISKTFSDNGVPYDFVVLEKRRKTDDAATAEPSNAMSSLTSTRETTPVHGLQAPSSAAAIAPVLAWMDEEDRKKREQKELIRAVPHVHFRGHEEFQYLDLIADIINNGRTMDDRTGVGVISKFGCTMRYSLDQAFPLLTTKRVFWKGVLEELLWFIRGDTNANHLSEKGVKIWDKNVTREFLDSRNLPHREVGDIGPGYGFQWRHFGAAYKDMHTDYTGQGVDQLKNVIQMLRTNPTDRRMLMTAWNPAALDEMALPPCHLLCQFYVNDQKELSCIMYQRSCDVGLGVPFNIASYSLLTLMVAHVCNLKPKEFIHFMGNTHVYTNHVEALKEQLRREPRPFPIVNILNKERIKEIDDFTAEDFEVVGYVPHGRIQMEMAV
Test: biochemical

{"columns": ["structure", "units", "result_modifier", "IC50"],
 "data": [
  ["Nc1ncc(N2CCN(c3cccc(Cl)c3)CC2)c(N)n1", "µM", "=", 0.0398],
  ["Nc1ncc(N2CCN(c3ccccc3-c3ccccc3)CC2)c(N)n1", "µM", "=", 0.0309],
  ["Cc1ncc(-c2cccc(N3CCN(c4cnc(N)nc4N)CC3)c2)cn1", "µM", "=", 0.00395],
  ["Nc1ncc(N2CCN(c3ccccc3Cl)CC2)c(N)n1", "µM", ">", 10],
  ["Cc1nc(N)nc(N)c1N1CCN(c2cccc(-c3ccccc3)c2)CC1", "µM", "=", 0.00919],
  ["Nc1ncc(N2CCN(c3cccc(OC(F)(F)F)c3)CC2)c(N)n1", "µM", "=", 0.0129],
  ["Cc1ccccc1N1CCN(c2cnc(N)nc2N)CC1", "µM", ">", 10],
  ["COc1cccc(N2CCN(c3cnc(N)nc3N)CC2)c1", "µM", "=", 0.0578],
  ["Nc1ncc(N2CCN(c3cccc(-c4ccncc4)c3)CC2)c(N)n1", "µM", "=", 0.00434],
  ["Nc1ncc(N2CCN(c3ccc(-c4ccccc4)cc3)CC2)c(N)n1", "µM", "=", 0.0315],
  ["Nc1ncc(N2CCN(c3cccc(-c4ccccn4)c3)CC2)c(N)n1", "µM", "=", 0.0103]
]}

====

assay: Fraction unbound in mouse brain by equilibrium dialysis; assay type: ADME, tissue-based

{"columns": ["structure", "fraction unbound"],
 "data": [
  ["COc1ncc(-c2cccc(N3CCN(c4cnc(N)nc4N)CC3)c2)cn1", 0.024]
]}

====

test: Apparent permeability from apical to basolateral side in MDCK-MDR1 cells at 2 uM after 15 mins by LC/MS/MS analysis; type: ADME, cell-based, Canis lupus familiaris; details: dog
value_type: Papp A→B at […], 2 µM (×10⁻⁶ cm/s)

{"columns": ["structure", "numeric_result"],
 "data": [
  ["COc1ncc(-c2cccc(N3CCN(c4cnc(N)nc4N)CC3)c2)cn1", 20.1],
  ["COc1cc(Cc2cnc(N)nc2N)cc(OC)c1OC", 7.5],
  ["Nc1ncc(N2CCN(c3cccc(-c4ccncc4)c3)CC2)c(N)n1", 17.4]
]}

Taken from ChEMBL document CHEMBL4422638.
